# maps each entry to its mass density
- ASSAY_CONDITIONS: 253.15 K; 101.33 kPa; Liquid
// note: answer is a bare numeric in kg/m3

# CHEMICAL_STRING, NUMERIC_READOUT
measured = [
    ("CCCBr", 1415.4),
]

Dear colleague, please send me the reported mass density for CCCCCBr when you can. 1260.3

Dear colleague, please send me the reported mass density for CCCCBr when you can. 1326.5

Dear colleague, please send me the reported mass density for CCCCCCBr when you can. 1218

Dear colleague, please send me the reported mass density for CCCCCCCCBr when you can. 1151.1

* * *

- ASSAY_CONDITIONS: 393.15 K; 101.33 kPa; Liquid
# maps each entry to its mass density
// note: answer is a bare numeric in kg/m3

# COMPOUND, READOUT_UNIT, mass density
rows = [
    ("CCCCCCCBr [1-bromoheptane]", "kg/m3", 1026.6),
    ("CCCCCCCCBr [1-bromooctane]", "kg/m3", 1008.4),
    ("CCCCCCCCCCCCBr [1-bromododecane]", "kg/m3", 952.4),
]

Next, consider the following compound.
Dear colleague, please send me the reported mass density for CCCCCBr [1-bromopentane] when you can. 1083.4

* * *

# maps each entry to its mass density
- ASSAY_CONDITIONS: 283.15 K; 101.33 kPa; Liquid
± gives the expanded uncertainty stated by the source.

Take a look at these entries with their results.
# MOLECULE, mass density
records = [
    ("CCCCCCCBr [1-bromoheptane]", "1148.7 ± 1.3 kg/m3"),
    ("CCCCCCCCBr [1-bromooctane]", "1121.2 ± 1.3 kg/m3"),
    ("CCCBr [1-bromopropane]", "1369.4 ± 1.5 kg/m3"),
]

Dear colleague, please send me the reported mass density for CCCCBr [1-bromobutane] when you can. 1286.4 ± 1.4 kg/m3

Dear colleague, please send me the reported mass density for CCCCCCCCCCCCBr [1-bromododecane] when you can. 1048.5 ± 1.2 kg/m3

Dear colleague, please send me the reported mass density for CCCCCCBr [1-bromohexane] when you can. 1183.8 ± 1.3 kg/m3

* * *

- ASSAY_CONDITIONS: 263.15 K; 101.33 kPa; Liquid
ASSAY_ENDPOINT: mass density (kg/m3)
// note: answer is a bare numeric in kg/m3

Take a look at these entries with their results.
# CHEMICAL_STRING, mass density [kg/m3]
records = [
    ("CCCCCBr", 1249.9),
    ("CCCBr", 1400.3),
]

Dear colleague, please send me the reported mass density for CCCCCCCBr when you can. 1169.6

Dear colleague, please send me the reported mass density for CCCCBr when you can. 1313.8

Dear colleague, please send me the reported mass density for CCCCCCCCBr when you can. 1140.9

* * *

- ASSAY_CONDITIONS: 363.15 K; 101.33 kPa; Liquid
ASSAY_ENDPOINT: mass density (kg/m3)
// note: answer is a bare numeric in kg/m3

# CHEMICAL_STRING, READOUT_UNIT, mass density
data = [
    ("CCCCCBr", "kg/m3", 1124.7),
    ("CCCCCCBr", "kg/m3", 1090.8),
]

Dear colleague, please send me the reported mass density for CCCCCCCCCCCCBr when you can. 979

Dear colleague, please send me the reported mass density for CCCCCCCCBr when you can. 1039.5

* * *

- ASSAY_CONDITIONS: 273.15 K; 101.33 kPa; Liquid
# maps each entry to its mass density
// note: answer is a bare numeric in kg/m3

Take a look at these entries with their results.
# CHEMICAL_STRING, mass density (kg/m3)
data = [
    ("CCCCCCCBr", 1159.2),
    ("CCCCCCBr", 1195.3),
    ("CCCCCCCCBr", 1131.2),
    ("CCCCBr", 1300.5),
    ("CCCCCBr", 1239.6),
    ("CCCCCCCCCCCCBr", 1056.5),
]

Dear colleague, please send me the reported mass density for CCCBr when you can. 1385.3

* * *

- ASSAY_CONDITIONS: 343.15 K; 101.33 kPa; Liquid
ASSAY_ENDPOINT: mass density (kg/m3)
// note: answer is a bare numeric in kg/m3

Take a look at these entries with their results.
# COMPOUND, mass density, kg/m3
data = [
    ("CCCCCCCBr [1-bromoheptane]", 1084.5),
    ("CCCCCCCCBr [1-bromooctane]", 1060.5),
    ("CCCCCCCCCCCCBr [1-bromododecane]", 996.2),
    ("CCCCCBr [1-bromopentane]", 1151),
]

Next, consider the following compound.
Dear colleague, please send me the reported mass density for CCCCCCBr [1-bromohexane] when you can. 1113.7

* * *

- ASSAY_CONDITIONS: 298.15 K; 101.33 kPa; Liquid
± gives the expanded uncertainty stated by the source.
ASSAY_ENDPOINT: mass density
Could you write the number and then its unit?

Take a look at these entries with their results.
# CHEMICAL_STRING, mass density
measured = [
    ("CCCBr", "1344.5 ± 1.4 kg/m3"),
    ("CCCCBr", "1265.7 ± 1.3 kg/m3"),
    ("CCCCCCBr", "1166.8 ± 1.3 kg/m3"),
    ("CCCCCCCCBr", "1106 ± 1.3 kg/m3"),
    ("CCCCCCCCCCCCBr", "1035.6 ± 1.2 kg/m3"),
    ("CCCCCBr", "1208.5 ± 1.6 kg/m3"),
]

Dear colleague, please send me the reported mass density for CCCCCCCBr when you can. 1132.9 ± 1.3 kg/m3
